Parameter EC50, CellTiter-Blue viability: see the listing below.
Tested on: BT-549
Settings: 72 h
Record the result as a number with its unit.

# example entries with known answers
INSERT INTO assay_data (compound, result) VALUES
  ('Cc1ccc(C(=O)Nc2ccc(CN3CCN(C)CC3)c(C(F)(F)F)c2)cc1C#Cc1cnc2cccnn12 [Ponatinib]', '893 nM'),
  ('CCN(CCCOc1ccc2c(Nc3cc(CC(=O)Nc4cccc(F)c4)[nH]n3)ncnc2c1)CCOP(=O)(O)O [Barasertib]', '23.1 nM'),
  ('COc1cc([C@@H]2c3cc4c(cc3[C@@H](O[C@@H]3O[C@@H]5CO[C@@H](C)O[C@H]5[C@H](O)[C@H]3O)[C@H]3COC(=O)[C@H]23)OCO4)cc(OC)c1O [Etoposide]', '224 nM');

Please report the measured EC50, CellTiter-Blue viability for C[C@@H](Oc1cc(-c2cnn(C3CCNCC3)c2)cnc1N)c1c(Cl)ccc(F)c1Cl [Crizotinib]
7180 nM

Indicate the recorded EC50, CellTiter-Blue viability value for this compound: N[C@@H](CSC(c1ccccc1)(c1ccccc1)c1ccccc1)C(=O)O [S-trityl-L-cysteine]
18300 nM
